- Test system: Plasmodium berghei
- EXPERIMENTAL DETAILS: Screen against P. berghei liver stage (PbLuc), transformed with Luciferase, at 2uM
- Assay type: functional, HepG2
- CONDITION PARAMETERS: tested at 2 uM
Among all 68,000 compounds or so, about 2,700 (4%) showed an effect of 50% or more. The full list was thinned out, with strong results kept by preference.
Threshold rule: INHIBITION greater than or equal to -10% is Y; below that, N.

> print(dat)
                                   molecule        assay.system  assigned.category
1  CC(Cn1cccn1)NCc1nc(-c2cccs2)no1 (configuration not stated)  Plasmodium berghei                  Y
2  Cc1ccc(C(=O)N2Cc3c(CN4CCCCC4)nn(C)c3C2)cc1C  Plasmodium berghei                  N
3  Cc1cnn(CC(C)NCc2nc(-c3cccs3)no2)c1 (configuration not stated)  Plasmodium berghei                  N
4  O=C(Cn1cccn1)NCC1CCCN(Cc2ccccc2)C1 (configuration not stated)  Plasmodium berghei                  Y
5  Cc1cc(C)cc(N(C)S(=O)(=O)c2cc(C(=O)O)cs2)c1  Plasmodium berghei                  Y
6  O=C(NCC1CCC2(CCNCC2)CO1)c1cnccn1 (configuration not stated)  Plasmodium berghei                  N
7        c1cc(OCc2ccc3c(c2)OCO3)ccc1CNC1CC1  Plasmodium berghei                  Y

---

INHIBITION values for the compounds below.
- Tested on: Plasmodium berghei
- EXPERIMENTAL DETAILS: Screen against P. berghei liver stage (PbLuc), transformed with Luciferase, at 2uM
- Format: functional, HepG2
- CONDITION PARAMETERS: tested at 2 uM
In all, about 68,000 compounds went through this assay and about 2,700 (4%) showed an effect of 50% or more. The sample as a whole holds a higher share of strong results than the screen did.
RESULT TYPE: INHIBITION (%)

> print(dat)
                                   compound  unit.of.measurement  experimental.value
1  Cc1cc(N2Cc3cnn(CCO)c3C2)nc(-c2ccccc2O)n1                    %               53.55
2  Cc1ccn2c(F)c(C(=O)N3CCC4(CCC(=O)N(C)C4)CC3)nc2c1                    %                6.81
3  COC(=O)[C@H]1C[C@@H](O)CCN1S(=O)(=O)c1ccc(F)cc1F                    %               16.25
4  O=C1C(Sc2nnnn2C2CC2)CCN1c1ccccc1F (centres undefined)                    %               21.82
5    O=C(Nc1c(N2CCCC2)cccc1N1CCCC1)c1cnccn1                    %               19.33
6  Cc1noc(OCC(=O)N2CCCCC2C)n1 (centres undefined)                    %               50.32
7  COC(=O)[C@H]1C[C@@H](O)CCN1S(=O)(=O)c1cc(C)c(Cl)cc1C                    %               26.51
8      N[C@H]1CN(CCCOc2ccccc2)C[C@@H]1C1CC1                    %               18.64
9  O=C(O)c1nnn(Cc2cccc(C(F)(F)F)c2)c1-c1cccnc1                    %                39.9

From: ChEMBL document CHEMBL4513216
